For each entry below, report its parasite growth, % of DMSO control value.
experiment: qHTS profiling of the MIPE4 collection as inhibitors of Plasmodium falciparum (3D7) proliferation (AID 743344);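 also: scaled between DMSO vehicle wells and 0.29 µM artemisinin as full inhibition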; conditions: P. falciparum 3D7 in erythrocytes, SYBR Green DNA fluorescence, 72 h; at 28.5 µM unless noted
Give bare numbers, in %.

Known parasite growth, % of DMSO control results, listed for orientation:
Compound: Cc1ccc(Nc2cc(-c3cccc(N4C(=O)c5ccccc5C4=O)c3)ncn2)cc1NS(C)(=O)=O
Value Units: %
Result: 76.1
//
Compound: COc1cc2c(cc1OC)CN(CCc1ccc(NC(=O)c3cc(OC)c(OC)cc3NC(=O)c3cnc4ccccc4c3)cc1)CC2
Value Units: %
Result: 39.1
//
Compound: N#CC(=C(N)Sc1ccccc1N)C(C#N)=C(N)Sc1ccccc1N
Value Units: %
Result: 4.41
//
Compound: C[C@]12CC[C@@H]3c4ccc(O)cc4C[C@@H](CCCCCCCCCS(=O)CCCC(F)(F)C(F)(F)F)[C@H]3[C@H]1CC[C@H]2O (stereo partly drawn)
Value Units: %
Result: 5.44
//
Compound: CC1(C)CCC(CN2CCN(c3ccc(C(=O)NS(=O)(=O)c4ccc(NCC5CCOCC5)c([N+](=O)[O-])c4)c(Oc4cnc5[nH]ccc5c4)c3)CC2)=C(c2ccc(Cl)cc2)C1
Value Units: %
Result: 18.2
//
Compound: O=C(O)c1ccc(-c2c[nH]c3ncc(-c4ccccc4)cc23)cc1C1CCCC1
Value Units: %
Result: 5.48
//
Compound: O=C(O)c1ccc(-c2cc3cccnc3c(-c3ccc4nonc4c3)n2)cc1
Value Units: %
Result: 15.8

Then there is this compound:
Lookup: Fill in reported parasite growth, % of DMSO control for this entry: `O=C1c2ccccc2-[n+]2ccc3c([nH]c4ccccc43)c21`
Found: 16.3
